Hello, the source for this data is patent US20220056104A1, in case you need it.

- SYSTEM_TESTED: T1, Recombinant DR3-Fc (R&D Systems, cat. #943-D3) (UniProt Q93038 25-199, limits assumed)
- T1 construct: dimeric MW~92 kDa; also called DR3 receptor; Fc-DR3; not shown: Fc part of the bought fusion
- T1 sequence (looked up): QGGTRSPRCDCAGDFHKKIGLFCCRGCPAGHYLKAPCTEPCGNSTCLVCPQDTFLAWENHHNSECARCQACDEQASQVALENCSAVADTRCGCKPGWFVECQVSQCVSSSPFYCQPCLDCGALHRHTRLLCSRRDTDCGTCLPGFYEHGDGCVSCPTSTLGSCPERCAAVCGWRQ
- TEST_DETAILS: ELISA, DR3-Fc immobilized
OBSERVED_PROPERTY: Rel EC50

As a guide, the following entries are already answered.
TL1W126 (His-TEV-TL1A F209W) (ligand, also called TL1W126 (F209W)) HHHHHHENLYFQGLKGQEFAPSHQQVYAPLRADGDKPRAHLTVVRQTPTQHFKNQFPALHWEHELGLAFTKNRMNYTNKFLLIPESGDYFIYSQVTFRGMTSECSEIRQAGRPNKPDSITVVITKVTDSYPEPTQLLMGTKSVCEVGSNWWQPIYLGAMFSLQEGDKLMVNVSDISLVDYTKEDKTFFGAFLL
2.2 ratio (head: nM)
TL1W42 (His-TEV-TL1A F114A) (ligand, also called TL1W42 (F114A)) HHHHHHENLYFQGLKGQEFAPSHQQVYAPLRADGDKPRAHLTVVRQTPTQHFKNQAPALHWEHELGLAFTKNRMNYTNKFLLIPESGDYFIYSQVTFRGMTSECSEIRQAGRPNKPDSITVVITKVTDSYPEPTQLLMGTKSVCEVGSNWFQPIYLGAMFSLQEGDKLMVNVSDISLVDYTKEDKTFFGAFLL
3 ratio (head: nM)
TL1W99 (His-TEV-TL1A S176A) (ligand, also called TL1W99 (S176A)) HHHHHHENLYFQGLKGQEFAPSHQQVYAPLRADGDKPRAHLTVVRQTPTQHFKNQFPALHWEHELGLAFTKNRMNYTNKFLLIPESGDYFIYSQVTFRGMTSECSEIRQAGRPNKPDAITVVITKVTDSYPEPTQLLMGTKSVCEVGSNWFQPIYLGAMFSLQEGDKLMVNVSDISLVDYTKEDKTFFGAFLL
1.3 ratio (head: nM)
TL1W24 (His-TEV-hTL1A 72-251 F209A) (ligand, also called TL1W24 (F209A)) HHHHHHENLYFQGLKGQEFAPSHQQVYAPLRADGDKPRAHLTVVRQTPTQHFKNQFPALHWEHELGLAFTKNRMNYTNKFLLIPESGDYFIYSQVTFRGMTSECSEIRQAGRPNKPDSITVVITKVTDSYPEPTQLLMGTKSVCEVGSNWAQPIYLGAMFSLQEGDKLMVNVSDISLVDYTKEDKTFFGAFLL
10.7 ratio (head: nM)

Now turn to the next binder.
The binder identified as TL1W90 (His-TEV-TL1A R156K) (ligand, also called TL1W90 (R156K)) HHHHHHENLYFQGLKGQEFAPSHQQVYAPLRADGDKPRAHLTVVRQTPTQHFKNQFPALHWEHELGLAFTKNRMNYTNKFLLIPESGDYFIYSQVTFKGMTSECSEIRQAGRPNKPDSITVVITKVTDSYPEPTQLLMGTKSVCEVGSNWFQPIYLGAMFSLQEGDKLMVNVSDISLVDYTKEDKTFFGAFLL registered its Rel EC50 at 7.2 ratio (head: nM)
